# SYSTEM_TESTED: T1, native human MET on living cells (human, UniProt P08581 25-1390)
# T1 construct: whole, on cells; also called Human cells (A549); HPAF-II
# EXPERIMENT_NOTES: flow cytometry, A549 cells
TEST_READOUT: EMAX

Please review the entries below; each comes with its answer.
1) 72F8 chimeric llama-human IgG1 mAb (antibody, V domains shown, llama VH on human IgG1 CH1-CH2-CH3, llama VL on human lambda CL) VH: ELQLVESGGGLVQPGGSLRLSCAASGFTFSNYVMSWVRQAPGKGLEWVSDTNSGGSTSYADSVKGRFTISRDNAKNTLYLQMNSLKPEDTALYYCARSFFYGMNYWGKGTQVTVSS VL: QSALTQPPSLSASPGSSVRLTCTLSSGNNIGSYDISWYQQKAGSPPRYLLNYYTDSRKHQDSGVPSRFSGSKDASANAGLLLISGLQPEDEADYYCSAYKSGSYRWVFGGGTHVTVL = 156 % relative to control
2) 71G2 chimeric llama-human IgG1 mAb (antibody, V domains shown, llama VH on human IgG1 CH1-CH2-CH3, llama VL on human lambda CL) VH: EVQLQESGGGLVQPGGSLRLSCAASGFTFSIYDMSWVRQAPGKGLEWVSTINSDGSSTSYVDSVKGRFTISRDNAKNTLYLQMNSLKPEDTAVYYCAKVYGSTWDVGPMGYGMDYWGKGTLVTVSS VL: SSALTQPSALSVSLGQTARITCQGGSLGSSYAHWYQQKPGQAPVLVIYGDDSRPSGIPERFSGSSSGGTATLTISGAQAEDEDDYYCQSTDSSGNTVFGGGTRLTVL = 144 % relative to control

[ask] Sample 71C3 chimeric llama-human IgG1 mAb (antibody, V domains shown, llama VH on human IgG1 CH1-CH2-CH3, llama VL on human lambda CL) VH: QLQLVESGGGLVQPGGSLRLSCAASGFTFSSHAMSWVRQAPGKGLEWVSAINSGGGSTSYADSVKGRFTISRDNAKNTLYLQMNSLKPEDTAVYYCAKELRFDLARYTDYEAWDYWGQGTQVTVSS VL: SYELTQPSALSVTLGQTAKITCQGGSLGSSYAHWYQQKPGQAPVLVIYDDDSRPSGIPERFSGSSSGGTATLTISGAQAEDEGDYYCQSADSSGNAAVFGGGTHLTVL — what was its EMAX?
[reply] 106 % relative to control
